Would you mind telling me the reported MIC of each entry?
System: Providencia rettgeri
Test: Compound was evaluated for inhibitory activity against C24 Providencia rettgeri
Format: functional
Entry rule: numbers only, all in µM.

Input line: Data request, read-out MIC, for N[C@@H](C(=O)N[C@@H]1C(=O)N2C(C(=O)O)=C(C(F)(F)F)CC[C@H]12)c1cccc(Br)c1
Output line: 16

Input line: Data request, read-out MIC, for N[C@@H](C(=O)N[C@@H]1C(=O)N2C(C(=O)O)=C(C(F)(F)F)CC[C@H]12)c1ccc(F)cc1
Output line: 8

Input line: Data request, read-out MIC, for N[C@@H](C(=O)N[C@@H]1C(=O)N2C(C(=O)O)=C(Cl)CS[C@H]12)c1ccccc1 [CEFACLOR ANHYDROUS]
Output line: 64

Input line: Data request, read-out MIC, for Cc1cccc([C@@H](N)C(=O)N[C@@H]2C(=O)N3C(C(=O)O)=C(C(F)(F)F)CC[C@H]23)c1
Output line: 16

Input line: Data request, read-out MIC, for N[C@@H](C(=O)N[C@@H]1C(=O)N2C(C(=O)O)=C(C(F)(F)F)CC[C@H]12)c1ccc(Cl)c(Cl)c1
Output line: 64

Input line: Data request, read-out MIC, for N[C@@H](C(=O)N[C@@H]1C(=O)N2C(C(=O)O)=C(C(F)(F)F)CC[C@H]12)c1ccc(O)c(Cl)c1
Output line: 4

Input line: Data request, read-out MIC, for N[C@@H](C(=O)N[C@@H]1C(=O)N2C(C(=O)O)=C(C(F)(F)F)CC[C@H]12)c1ccc(O)cc1
Output line: 4
